The entries below are paired with their reported fluorescence lifetime.
# ASSAY_TEXT: solvent given as SMILES
# EXPERIMENTAL_SETUP: in CC#N
Use ns as the unit, but write only the number.

[
  {
    "MOLECULE": "CCN(CC)c1ccc2nc3c4ccccc4c(=O)cc-3oc2c1",
    "UNIT_ABBREV": "ns",
    "fluorescence lifetime": 4.7
  },
  {
    "MOLECULE": "O=c1oc2cc(S(=O)(=O)O)c3ccccc3c2nc1-c1ccccc1",
    "UNIT_ABBREV": "ns",
    "fluorescence lifetime": 4.5
  },
  {
    "MOLECULE": "CN1c2ccccc2CCc2ccccc21",
    "UNIT_ABBREV": "ns",
    "fluorescence lifetime": 0.63
  }
]

# fluorescence lifetime of CCCCCCCCC1(CCCCCCCC)c2ccccc2-c2ccc(N(c3ccc(-n4c5ccccc5c5ccccc54)cc3)c3ccc4c(c3)C(CCCCCCCC)(CCCCCCCC)c3ccccc3-4)cc21 = 1.8

# fluorescence lifetime of Cn1cc(-c2nc3ccccc3nc2/C=C/N2CCCC2)c2ccccc21 = 6.75
